ASSAYED_SYSTEM: T1, Human Siglec-9 mutant M3 (human, UniProt Q9Y336 18-463)
T1 construct: Expressed on HEK293T cells; also called Mutant 3
T1 sequence (Q9Y336 other isoform, or with tags, fused parts or gaps mutant): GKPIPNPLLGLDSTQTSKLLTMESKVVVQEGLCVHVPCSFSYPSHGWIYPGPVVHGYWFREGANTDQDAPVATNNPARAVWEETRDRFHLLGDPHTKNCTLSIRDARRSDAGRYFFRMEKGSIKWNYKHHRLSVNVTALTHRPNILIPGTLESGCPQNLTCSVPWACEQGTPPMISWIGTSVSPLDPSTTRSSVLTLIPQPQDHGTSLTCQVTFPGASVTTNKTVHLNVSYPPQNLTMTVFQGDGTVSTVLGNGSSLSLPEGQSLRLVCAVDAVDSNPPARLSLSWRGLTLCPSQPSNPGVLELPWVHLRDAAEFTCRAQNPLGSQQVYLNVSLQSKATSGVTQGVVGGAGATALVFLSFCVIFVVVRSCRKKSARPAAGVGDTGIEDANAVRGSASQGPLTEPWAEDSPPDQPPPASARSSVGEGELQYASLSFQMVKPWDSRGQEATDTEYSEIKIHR
TEST: flow cytometry, HEK293T transfectants
QUANTITY: binding result

BINDER	EXPERIMENTAL_RESULT
mAbF (antibody, human IgG1, V domains shown) VH: QVQLQQSGPEVVRPGVSVKISCKGSGYTFTDYSMHWVKQSHAKSLEWIGVISTYNGNTNYNQKFKGKATMTVDKSSSTAYMELARLTSEDSAIYYCARRGYYGSSSWFGYWGQGTLVTVSA VL: DIVMTQSQKFMSTSVGDRVSVTCKASQNVGTDVAWYQQKPGQSPEALIYSASYRYSGVPDRFTGSGSGADFTLTISNVQSEDLAEYFCQQYNSFPYTFGGGTKLEIK	binds
mAb1 (antibody, human IgG1, V domains shown) VH: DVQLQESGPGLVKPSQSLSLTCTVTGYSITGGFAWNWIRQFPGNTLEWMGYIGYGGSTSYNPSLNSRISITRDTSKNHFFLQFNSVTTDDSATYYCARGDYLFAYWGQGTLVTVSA VL: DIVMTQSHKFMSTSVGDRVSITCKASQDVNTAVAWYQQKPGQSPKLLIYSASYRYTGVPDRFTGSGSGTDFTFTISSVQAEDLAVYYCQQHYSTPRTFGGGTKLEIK	binds
mAbD (antibody, human IgG1, V domains shown) VH: QIQLVQSGPELKKPGETVKISCKASGYTFTDYSMHWVKQAPGKGLKWMGWIITETGEPTYADDFRGRFAFSLETSANTAYLQINNLKNEDTATYFCARDFDGYWGQGTTLTVSS VL: DILMTQSPASLSASVGETVTITCRASENIYSYLAWYQQKRGKSPQFLVYNAKTLTEGVPSRFRGSGSGTQFSLKINSLQPEDFGTYYCQHHYGFPWTFGGGTKLEIK	binds

The values you see were collected from patent US20200369765A1.
